EXPERIMENT DESCRIPTION: Oral bioavailability in rat of representative formulations of compound 552
Type: in vivo
TEST CONDITIONS: plasma, IV 2 mg/kg, 5% HP-β-CD in water
RESULT TYPE: Tmax (min)
Numbers only, in min.

Task item: # query: Tmax of entry CCC[C@@H]1NC(=O)[C@@H](C(C)C)NC(=O)[C@@H](Cc2ccc(O)c(Cl)c2)N[C@@H](C)COc2ccccc2CCCNC1=O [Compound 552]
Reply: 5

---

Provide the recorded IC50 for the entries that follow.
TEST SYSTEM: CYP2E1 (Homo sapiens, UniProt P05181)
Construct: purchased BD Gentest, Becton-Dickinson (Supersomes); host or cells: insect cells (microsomes)
Sequence (P05181 whole entry): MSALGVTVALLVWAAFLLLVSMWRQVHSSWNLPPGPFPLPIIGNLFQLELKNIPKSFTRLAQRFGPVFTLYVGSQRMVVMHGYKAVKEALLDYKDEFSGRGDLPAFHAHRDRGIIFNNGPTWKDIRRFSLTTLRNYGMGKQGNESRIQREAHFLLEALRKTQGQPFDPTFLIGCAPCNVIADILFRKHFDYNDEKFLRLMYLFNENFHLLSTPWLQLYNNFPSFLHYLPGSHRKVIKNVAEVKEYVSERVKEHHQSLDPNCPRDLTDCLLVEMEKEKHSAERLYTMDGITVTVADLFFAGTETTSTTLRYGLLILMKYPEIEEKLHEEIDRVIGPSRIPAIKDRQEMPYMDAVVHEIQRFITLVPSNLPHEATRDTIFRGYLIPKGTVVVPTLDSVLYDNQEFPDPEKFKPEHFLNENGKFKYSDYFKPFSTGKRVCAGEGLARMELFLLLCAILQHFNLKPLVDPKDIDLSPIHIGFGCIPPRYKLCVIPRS
EXPERIMENT DESCRIPTION: Cytochrome P450 inhibition, CYP2E1
Assay type: in vitro ADME
TEST CONDITIONS: Supersomes; read-out: IC50 (μM) 2E1

{"columns": ["COMPOUND", "REPORTED RESULT"],
 "data": [
  ["CCC[C@@H]1NC(=O)[C@@H](C(C)C)NC(=O)[C@@H](Cc2ccc(O)c(C(C)(C)C)c2)NCCOc2ccccc2CCCNC1=O [Compound 553]", "> 100 µM"]
]}

From here, focus on the item given below.
Task item: Look up IC50 for this compound: CCC[C@@H]1NC(=O)[C@@H](C(C)C)NC(=O)[C@@H](Cc2cccc(F)c2)N[C@@H](C)COc2ccccc2CCCNC1=O [Compound 551]
Reply: > 100 µM

---

TEST SYSTEM: human motilin receptor (Homo sapiens, UniProt O43193)
Sequence (O43193 whole entry): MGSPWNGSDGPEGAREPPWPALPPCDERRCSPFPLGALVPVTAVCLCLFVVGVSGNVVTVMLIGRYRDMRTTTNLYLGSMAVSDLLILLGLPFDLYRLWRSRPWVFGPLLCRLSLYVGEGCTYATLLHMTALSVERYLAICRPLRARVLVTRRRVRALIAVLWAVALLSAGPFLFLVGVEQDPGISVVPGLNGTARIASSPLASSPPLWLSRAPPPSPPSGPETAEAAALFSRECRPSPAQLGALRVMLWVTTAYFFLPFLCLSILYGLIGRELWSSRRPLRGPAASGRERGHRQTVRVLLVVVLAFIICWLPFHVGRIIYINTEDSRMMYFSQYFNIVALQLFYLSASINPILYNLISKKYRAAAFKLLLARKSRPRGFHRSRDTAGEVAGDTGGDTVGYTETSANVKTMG
EXPERIMENT DESCRIPTION: Competitive radioligand binding assay (motilin receptor)
Parameters: purchased PerkinElmer (SignalScreen) 6110544; host or cells: CHO cells, stably transfected; membranes
TEST CONDITIONS: [125I]-motilin competition, membranes of CHO cells with human motilin receptor; read-out: Ki
pKi: −log10 of the molar value.
Would you kindly list pKi for each of these compounds?

{"columns": ["COMPOUND STRUCTURE", "pKi"],
 "data": [
  ["CC(C)[C@H]1NC(=O)[C@@H](Cc2cccc(F)c2)N[C@@H](C)COc2ccccc2C[C@H](C)CNC(=O)[C@H](CN=[N+]=[N-])NC1=O", "≥ 8.00"],
  ["CCC[C@@H]1NC(=O)[C@@H](C)NC(=O)[C@@H](Cc2cccc(F)c2)N[C@@H](C)COc2ccccc2CCCNC1=O", "≥ 8.00"],
  ["CC(C)[C@H]1NC(=O)[C@@H](Cc2ccc(F)cc2)N[C@@H](C)COc2ccccc2CCCNC(=O)[C@H](CC2CC2)NC1=O", "≥ 8.00"],
  ["COC[C@@H]1NC(=O)[C@@H](C(C)C)NC(=O)[C@@H](Cc2cccc(F)c2)N[C@@H](C)COc2ccccc2CCCNC1=O", "≥ 8.00"],
  ["CC(C)[C@H]1NC(=O)[C@@H](Cc2cccc(C(F)(F)F)c2)NCCOc2ccccc2CCCNC(=O)[C@H](CN2CCCC2)NC1=O", "≥ 8.00"],
  ["CC(C)[C@H]1NC(=O)[C@@H](Cc2cccc(C(F)(F)F)c2)NCCOc2ccccc2CCCNC(=O)[C@H](Cn2nncc2CN)NC1=O", "≥ 7.00"],
  ["CCC[C@@H]1NC(=O)[C@@H](C(C)C)NC(=O)[C@@H](Cc2ccc(C(F)(F)F)cc2)NCCOc2ccccc2CCCNC1=O", "≥ 7.00"],
  ["CNC[C@@H]1NC(=O)[C@@H](C(C)C)NC(=O)[C@@H](Cc2cccc(F)c2)N[C@@H](C)COc2ccccc2CCCNC1=O", "≥ 8.00"],
  ["CC(C)[C@H]1NC(=O)[C@@H](Cc2cccc(C(F)(F)F)c2)NCCOc2ccccc2CCCNC(=O)[C@H](Cn2cccc2)NC1=O", "≥ 8.00"],
  ["CC(C)[C@H]1NC(=O)[C@@H](Cc2cccc(F)c2)N[C@@H](C)COc2ccccc2CCCNC(=O)[C@H](CN=[N+]=[N-])NC1=O", "≥ 8.00"]
]}

Go through the items and report each one's pKi.
1. CC(C)[C@H]1NC(=O)[C@@H](Cc2cccc(Cl)c2)NCCOc2ccccc2C[C@@H](C)CNC(=O)[C@H](CC2CC2)NC1=O
2. CC(C)[C@H]1NC(=O)[C@@H](Cc2ccc(F)cc2)NCCOc2ccccc2C[C@H](C)CNC(=O)[C@H](CC2CC2)NC1=O
3. CC(C)[C@H]1NC(=O)[C@@H](Cc2cccc(F)c2)N[C@@H](C)COc2ccccc2CCCNC(=O)[C@H](CN(C)C)NC1=O
4. CCC[C@@H]1NC(=O)[C@@H](C(C)C)NC(=O)[C@@H](Cc2ccc(O)c(Cl)c2)N[C@@H](C)COc2ccccc2CCCNC1=O
5. CC(C)[C@H]1NC(=O)[C@@H](Cc2cccc(C(F)(F)F)c2)NCCOc2ccccc2CCCNC(=O)[C@H](CN)NC1=O
6. CC(C)[C@H]1NC(=O)[C@@H](Cc2cccc(Cl)c2)NCCOc2ccccc2C(C)(C)CCNC(=O)[C@H](CC2CC2)NC1=O
7. CCC[C@@H]1NC(=O)[C@@H](C(C)C)NC(=O)[C@@H](Cc2cccc(F)c2)N[C@@H](C)COc2ccccc2C[C@H](C)CNC1=O
8. CNC[C@@H]1NC(=O)[C@@H](C(C)C)NC(=O)[C@@H](Cc2cccc(F)c2)N[C@@H](C)COc2ccccc2C[C@H](C)CNC1=O

Reply:
["≥ 7.00", "≥ 8.00", "≥ 8.00", "≥ 8.00", "≥ 7.00", "≥ 7.00", "≥ 8.00", "≥ 8.00"]

Consider the following items and state reported pKi for each.
1. CC(C)[C@H]1NC(=O)[C@@H](Cc2cccc(F)c2)NCCOc2ccccc2C[C@@H](C)CNC(=O)[C@H](CN(C)C)NC1=O
2. CC(C)NC[C@@H]1NC(=O)[C@@H](C(C)C)NC(=O)[C@@H](Cc2ccc(Cl)cc2)NCCOc2ccccc2CCCNC1=O
3. CC(C)NC[C@@H]1NC(=O)[C@@H](C(C)C)NC(=O)[C@@H](Cc2ccc(O)cc2)NCCOc2ccccc2CCCNC1=O
4. Cc1cnnn1C[C@@H]1NC(=O)[C@@H](C(C)C)NC(=O)[C@@H](Cc2cccc(F)c2)N[C@@H](C)COc2ccccc2CCCNC1=O
5. Cc1nnn(C[C@@H]2NC(=O)[C@@H](C(C)C)NC(=O)[C@@H](Cc3cccc(C(F)(F)F)c3)NCCOc3ccccc3CCCNC2=O)c1C
6. CC(C)[C@H]1NC(=O)[C@@H](Cc2cccc(C(F)(F)F)c2)NCCOc2ccccc2CCCNC(=O)[C@H](CNc2ncccn2)NC1=O

Reply:
1. ≥ 6.00
2. ≥ 7.00
3. ≥ 6.00
4. ≥ 7.00
5. ≥ 7.00
6. ≥ 7.00
